These data points were gathered from PubChem BioAssay (NCI).

procedure_text: NCI Yeast Anticancer Drug Screen. Data for the rad52 strain (AID 147);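 note: 0% = growth of vehicle-treated control cultures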
recorded_conditions: S. cerevisiae rad52 mutant growth inhibition; at 3.7 µM; stronger effect = higher value
About 79,000 compounds went through this panel and 15% of them were active in at least one assay; those are over-represented in the sample as a whole.
readout_type: growth inhibition (%)
Lab book: enter the figure in %, no units written.

Example entries begin here.
>  <molecule>
BrCc1cccc2ccc3cccc(CBr)c3c12

>  <scale_unit>
%

>  <growth inhibition>
-4

$$$$
>  <molecule>
COc1cc2c(c(OC)c1OC)-c1c(cc3c(c1OC)OCO3)CC(C)C(C)(O)C2OC(=O)c1ccccc1 (stereo unspecified)

>  <scale_unit>
%

>  <growth inhibition>
-15

$$$$
>  <molecule>
O=[N+]([O-])c1cccc2nccc(NCCCO)c12

>  <scale_unit>
%

>  <growth inhibition>
2

$$$$
>  <molecule>
O=C(/C=C/c1cccc(Br)c1)c1cccs1

>  <scale_unit>
%

>  <growth inhibition>
-12

$$$$
>  <molecule>
CC(/C=C/c1ccc2c(c1)OCO2)[N+](=O)[O-] (stereo unspecified)

>  <scale_unit>
%

>  <growth inhibition>
93

$$$$

Kindly consider the entry below.
Reported growth inhibition for O=C1c2ccccc2-c2n[nH]c3cccc1c23 : what is it?
10

----------
Quick list: growth inhibition per entry.
procedure_text: NCI Yeast Anticancer Drug Screen. Data for the rad50EPP+ strain (AID 151);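 note: 0% = growth of vehicle-treated control cultures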
recorded_conditions: S. cerevisiae rad50 mutant strain, at 100.0 µM, stronger effect = higher value
About 79,000 compounds went through this panel and 15% of them were active in at least one assay; those are over-represented in the sample as a whole. Calls of active or inactive are those of the source. Cut-off read from the data, not from the text of the source: active = growth inhibition above about 70%; inactive = the rest.

>  <molecule>
Cc1nc(-c2ccccc2)c(-c2ccccc2)s1

>  <growth inhibition>
65% (inactive)

$$$$
>  <molecule>
CSc1nc(=S)[nH]c2c1c(C)nn2-c1ccccc1

>  <growth inhibition>
14% (inactive)

$$$$
>  <molecule>
COc1ccc(Br)c(C(=O)Sc2nnnn2-c2cccc(Cl)c2)c1

>  <growth inhibition>
92% (active)

$$$$
>  <molecule>
[O-][n+]1c2ccc(O)cc2nc2ccc(Br)cc21

>  <growth inhibition>
77% (active)

$$$$
>  <molecule>
COc1ccc(-c2cn(-c3ccc(I)cc3)c3ncnc(N)c23)cc1

>  <growth inhibition>
6% (inactive)

$$$$
>  <molecule>
COc1cc2c(c(OC)c1OC)-c1c(cc3c(c1OC)OCO3)CC(C)C(C)(O)C2OC(=O)c1ccccc1 (stereo unspecified)

>  <growth inhibition>
5% (inactive)

$$$$
>  <molecule>
N#CN=Nc1cc(Cl)c(N=NC#N)cc1Cl

>  <growth inhibition>
79% (active)

$$$$
>  <molecule>
O=C(NCCCNCCCNC(=O)c1cc(-c2ccccc2)nc2ccccc12)c1cc(-c2ccccc2)nc2ccccc12

>  <growth inhibition>
19% (inactive)

$$$$

What growth inhibition value was documented for this molecule, NC(=S)N/N=C\c1nccc2ccccc12 ?
97% (active)

// next record N#CN1C2CCC1CC(=O)C2
-33% (inactive)

Try the molecule CCC[CH2][Ge]([CH2]CCC)([CH2]CCC)[O]C(=O)C(OC)c1ccccc1 (stereo unspecified)
34% (inactive)

----------
procedure_text: NCI Yeast Anticancer Drug Screen. Data for the cln2 rad14 strain (AID 165);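 note: 0% = growth equal to vehicle treated cultures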
recorded_conditions: S. cerevisiae cln2 rad14 strain, at 50.0 µM (retest, dose inferred, filed as 5.0), stronger effect = higher value
The panel holds about 79,000 compounds, 15% with a hit somewhere; the sample as a whole holds those more often.
Reported growth inhibition by item:
The reply should be a number in %, with the unit left off.

# growth inhibition lookup, item Clc1ccc(SC(/C=C/NNC2=NC(c3ccccc3)C(c3ccccc3)=NN2)c2ccccc2)cc1 (stereo unspecified)
7

Record: O=C(CC(=O)n1nc(-c2ccccc2)c(N=Nc2ccccc2C(=O)O)c1-c1ccccc1)Nc1ccc(Cl)cc1
24

Input O=Nc1cccnc1N=O
99

How about Cc1ccc(N)c(S)c1 ?
63

Consider next the molecule O=C(CCCN1CCC2(CC1)CC(=O)N(N1CCCCCC1)C2=O)c1ccc(F)cc1 in the same way.
82

Again, but for Cc1ccc(S/N=C\c2ccccc2O)cc1
-23

Try this molecule too: O=C(N=Nc1cc(Cl)ccc1Cl)NNc1cc(Cl)ccc1Cl
82

----------
procedure_text: NCI Yeast Anticancer Drug Screen. Data for the rad14 strain (AID 159);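 note: 0% = growth of vehicle-treated control cultures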
recorded_conditions: S. cerevisiae rad14 strain growth inhibition; at 100.0 µM; stronger effect = higher value
Procedure: Growth inhibition of yeast strains with defined genetic alterations is measured as a screen for potential anti-cancer activity. Selected strains with alterations in DNA damage repair or cell cycle control were exposed to compounds and growth inhibition was measured relative to vehicle treated controls. The strain used in this assay is rad14
This is part of a sample that, as a whole, favours compounds with a hit. Of some 79,000 tested, about 15% had one in any assay.
readout_type: growth inhibition (%)
Report the figure in % without appending any unit label.

Form field: reported growth inhibition of CCN(CC)C(=S)N/N=C(/C)c1cccc(/C(C)=N\NC(=S)N(CC)CC)n1
92

And for COc1cccc2nc3ccccc3nc12 ?
82

Entry CC(=O)Nc1ccc(/C=C(\C#N)c2ccc(C)cc2)cc1 please
1

Entry OC1CCCc2c1cc1ccc3cccc4ccc2c1c34 (configuration not stated) please
91

Moving on to COC(=O)C1=C(C)NC(C)=C(C(=O)OC)C1c1cccc(/[N+]([O-])=C/c2ccccc2)c1
92

----------
procedure_text: NCI Yeast Anticancer Drug Screen. Data for the sgs1 strain (AID 173);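 note: 0% = growth of vehicle-only control cultures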
recorded_conditions: S. cerevisiae sgs1 mutant, at 33.0 µM
Procedure: Growth inhibition of yeast strains with defined genetic alterations is measured as a screen for potential anti-cancer activity. Selected strains with alterations in DNA damage repair or cell cycle control were exposed to compounds and growth inhibition was measured relative to vehicle treated controls. The strain used in this assay is sgs1
The panel holds about 79,000 compounds, 15% with a hit somewhere; the sample as a whole holds those more often. The source made the active and inactive calls. Rule as the data show it: active = growth inhibition above about 70%; inactive = the rest.
Entry note: the call must match one of active, inactive

Use these answered entries as a reference point.
>  <compound>
CCCCCCCCCCCCCCCCCCOCC(O)COP(=O)(O)OCC1OC(n2cc(F)c(=O)[nH]c2=O)CC1O (stereo not given)

>  <class_assignment>
active

$$$$
>  <compound>
O=C1c2ccccc2C(=O)c2cc(CBr)ccc21

>  <class_assignment>
active

$$$$
>  <compound>
CCN(CC)CC[n+]1ccc2c(C)c3[nH]c4ccc(O)cc4c3c(C)c2c1

>  <class_assignment>
inactive

$$$$
>  <compound>
CC(C)(CN1CCCCC1)C(=O)CC(SCCS(=O)(=O)O)c1ccc(Br)cc1 (stereo not given)

>  <class_assignment>
inactive

$$$$
>  <compound>
CSC(=S)N/N=C(\C)c1cccc(C)n1

>  <class_assignment>
inactive

$$$$

# fetch the recorded call for O=C1CSc2cc([N+](=O)[O-])ccc2N1 here
inactive

Entry Cc1ccc2ccc(O)cc2c1 please
inactive

Would you mind doing CN(N=O)N1C(=O)SCC(c2ccccc2)(c2ccccc2)C1=O as well?
inactive

Now give it for OC(c1ccc(F)cc1)(c1ccc(F)cc1)C1CC1 too.
inactive

// repeat for COC1C=COC2(C)Oc3c(C)c(O)c4c(c3C2=O)/C(=N/C2CCC(O)OC2C)C=C(NC(=O)/C(C)=C\C(=O)C2CC2C(O)C(C)C(O)C(C)C(OC(C)=O)C1C)C4=O (stereo not given) and report
inactive

----------
procedure_text: NCI Yeast Anticancer Drug Screen. Data for the sgs1 mgt1 strain (AID 161);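 note: 0% = growth of cultures given vehicle only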
recorded_conditions: S. cerevisiae sgs1 mgt1 strain, at 5.0 µM (retest, dose inferred, filed as 0.5)
Procedure: Growth inhibition of yeast strains with defined genetic alterations is measured as a screen for potential anti-cancer activity. Selected strains with alterations in DNA damage repair or cell cycle control were exposed to compounds and growth inhibition was measured relative to vehicle treated controls. The strain used in this assay is sgs1 mgt1
About 79,000 compounds went through this panel and 15% of them were active in at least one assay; those are over-represented in the sample as a whole. Calls of active or inactive are those of the source. Cut-off read from the data, not from the text of the source: active = growth inhibition above about 70%; inactive = the rest.
Form entry, call: pick from active, inactive

For orientation, consider the following solved cases.
>  <compound>
COC1=CC(=O)C(C2(OC(C)C)OC(=O)C(Cl)=C2Cl)=CC1=O (stereo not given)

>  <class_assignment>
inactive

$$$$
>  <compound>
OC1CCCc2c1cc1ccc3cccc4ccc2c1c34 (stereo not given)

>  <class_assignment>
inactive

$$$$
>  <compound>
Cc1ccc(-n2cc(-c3ccc(Cl)cc3)c(C#N)c2N)cc1

>  <class_assignment>
inactive

$$$$
>  <compound>
C=CC(C)(O)CCC1C(=C)C(O)CC2C(C)(C)CCCC12C (stereo not given)

>  <class_assignment>
inactive

$$$$
>  <compound>
CSC(=S)Nc1cccc(C)n1

>  <class_assignment>
inactive

$$$$

Test call, this compound: O=C1c2ccccc2-c2n[nH]c3cccc1c23
inactive

Likewise for COC(=O)c1cc(-c2ccc(C)cc2)[nH]c(=O)c1C#N ?
inactive

Again, but for O=C(Nc1ccccc1)C(=O)C(C(=O)c1ccccc1)C(c1ccccc1)c1ccccc1 (stereo not given)
inactive

For Cc1c(C2=C(Br)C(=O)N(C)C2=O)c(=O)n(C)c(=O)n1C then?
inactive

Param item: Cc1[nH]c2ccccc2c1C(c1ccc(N)cc1)c1c(C)[nH]c2ccccc12
inactive

Same lookup for O=C1C=CC(=O)N1c1ccc2c(c1)Cc1cc(NC(=O)C(F)(F)F)ccc1-2 , please.
active
